tested on: K4 kissing-loop RNA reporter; assay: apparent KD of K4 kissing-loop reporter; higher = weaker reporter binding; details: Eterna round: R107; input ligand: none;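 further: bound reporter read as fluorescence of individual clusters on recovered sequencing chips by microscopy, with normalized cluster intensities fitted with a binding model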
Binary classification by apparent KD of K4 kissing-loop reporter, with 0.2 µM as an inclusive lower bound for 1 (yes); all other cases are 0 (no).

[
  {
    "residue_sequence": "CGCAGUGAUGUUGCGAGUAACUACAGGGAAGGAGCGUGCUAAAGCACAGGUAGGUCGCCCAUGCAGUGAUGUUGUGUAAAAGGGU [Excluson Arginine A GF 13]",
    "class_assignment": "0 (no)"
  },
  {
    "residue_sequence": "GUAUCGCUAGGAGGAUAUUCCGUUUUUCAUAGAAAUGGCUAUGCGGAGUGAUGUUCCGAUUUACCGGAAGAAGGCCUAGUGAUAC [FMN B 23]",
    "class_assignment": "0 (no)"
  },
  {
    "residue_sequence": "GCGUAUGAUGCUCAAAGAGUAUCUCCCGAUACCAGUAUGGAAACAUACCCUUGGCAGCGGGUAACUGCCCAGUGAUGUUGGACGC [Theophylline A K4 9]",
    "class_assignment": "1 (yes)"
  },
  {
    "residue_sequence": "UGGUCUGCACGAAGGAGCGCCCUGACAGGUUGCUGCCGUGGGCAGUGAUGUUGCUUAGUCCGGCAGGUAGGUCGCGUGCAGACCA",
    "class_assignment": "1 (yes)"
  },
  {
    "residue_sequence": "CAUAGGAAACUAUGUUUCUCUCUUACUGAAGGAGCGCGUGAAAACGCAGGUAGGUCGCAGAUUUUGAGAGUGAUGUUCUCAAUAA [Ex Arginine A K4 18]",
    "class_assignment": "0 (no)"
  },
  {
    "residue_sequence": "UGUACCGAAUCAGGAUAUGUCGUCGAAAGACGAAAUGGAGUGAUGUUCCUUAAACUGCGAAAGCAGACAGAAGGGAUUUGGUACU [FmnBS 29 A9+U77]",
    "class_assignment": "1 (yes)"
  },
  {
    "residue_sequence": "CUUGGAAAGACGGCCGCCACUGGCCAGUGAUGUUGGCCCACCAGGUAAGCCAAGAAGCUUGACGUCAGGACCGGGUCCUAGGAAU [Exclusion TRyptophan B GF 23]",
    "class_assignment": "1 (yes)"
  },
  {
    "residue_sequence": "UGUCGGUGAAGAAUGUUAGUGAUGUUGGCACGAGGACCGGUACGGCCGCCACUCGGUAAUCAUCGCAAUUAUCGAUGGCGUAGCC [theeternabot_exclusion_KL_Trp_A_3]",
    "class_assignment": "0 (no)"
  },
  {
    "residue_sequence": "CCAUCGCUAUUCGAUACCAGCUCCUUAGUGAUGUUAAGGUUUUACCCACUGUAGGUGGGAAGCCCUUGGCAGCGAAUAGUGAUGG [Theophylline B K4 28]",
    "class_assignment": "1 (yes)"
  },
  {
    "residue_sequence": "AGCGAGUGAUGUUCGCUGAUCAUGUGAAGUUAGGAUAUAUACUUGCAUAGAAGGAACUAUUACAUGACAUUAGAGGCAGUAGUUC [FMN A SS t7b]",
    "class_assignment": "0 (no)"
  },
  {
    "residue_sequence": "GCCGUACGCACGGAUACCAGCACUCGGUGAGUGAUGUUCACGGUGUGGUAUUCAUCGGGCUGCCCUUGGCAGCCGUGCGUACGGC",
    "class_assignment": "0 (no)"
  },
  {
    "residue_sequence": "UGAUACCAGACGGCCGCCACUCCCGUAAGUCAAAGACUUACGAAGAGAGUUGUCCAGUGAUGUUGGAGGACCGGGUCUGGUAUCU [FiskerMod 13 - Jieux - Exclusion - Tryptophan B]",
    "class_assignment": "1 (yes)"
  },
  {
    "residue_sequence": "GGUUCUGUUUUAGGUUUAGUGAUGUUGAAUCGAGGACCGGUACGGCCGCCACUCGGUGACGUCGUAACUUUGGAGGUCCUAACCA [theeternabot_exclusion_KL_Trp_A_47]",
    "class_assignment": "1 (yes)"
  },
  {
    "residue_sequence": "ACGUGAAGCGACUCCUAGUUAAACCGGGAAGGAGCGCGGAUAACCGCAGGUAGGUCGCCCGGAAGCCGGACCAGUGAUGUUGGUC [Exclusion Arginine A Gf 26]",
    "class_assignment": "1 (yes)"
  },
  {
    "residue_sequence": "CCAAACAGUUACGAUACCAGUCUAAUAUAUUUGAUCAAAACCCUCGCCGAGUGAUGUUCGGACCCUUGGCAGCGUCUGGGACAGG [zzbtmullin]",
    "class_assignment": "1 (yes)"
  },
  {
    "residue_sequence": "AGGGACGAUAGCGAUACCAGAGGUCGCAAAUUCGCGCCGUUUUUUAGGAAGUGAUGUUUUCUCCCUUGGCAGCGCCCUUAGAGUU [theeternabot_exclusion_KL_Theo_B_47]",
    "class_assignment": "1 (yes)"
  },
  {
    "residue_sequence": "AUUUUGGUUUAGAGUGAUGUUCCUUGUAUUCGAGGACCGGUACGGCCGCCACUCGAAUAGAAAAGAAAAGAAAUGAGUGAUGUUU [BDazzled - #4 SS Tryptophan A]",
    "class_assignment": "1 (yes)"
  },
  {
    "residue_sequence": "UUAGAAGUAUACUUCAAGAGGUAUGCUGAUACCAGAGUCAAUUGACUCCCUUGGCAGCGGAUCGAGUGAUGUUCGUAACCUCAUU [AK3.1 SS Theophylline A]",
    "class_assignment": "1 (yes)"
  },
  {
    "residue_sequence": "UAUUCUGUUCGAAAGAACGGAAUUUCGGAAGGAGCGAGAGAAAUCUCAGGUAGGUCGCCGAAAUUAUUAGGUAGUGAUGUUACCU [Arginine A K4 5]",
    "class_assignment": "0 (no)"
  },
  {
    "residue_sequence": "AACUCUCAGACACUUGAGUGAUGUUCAGACCGAGGACCGGUACGGCCGCCACUCGGGUCUGAGAGAGGUUAUCAAAGAUAGCCAA [Omei KL Tryp A SS A v7]",
    "class_assignment": "1 (yes)"
  },
  {
    "residue_sequence": "UUAAUAUUGUCGGCCGCCACUGUUUAGUAUUUUGUAUAAUCUAUUUCAAAGUGAUGUUUUGAUUCCAGGACCGGGACAUUUGAUA [JR_Nu_ExcTryptoB_Sub031]",
    "class_assignment": "1 (yes)"
  },
  {
    "residue_sequence": "UCCUAGGCUCGAAAGAGCCUAGGAUUUACUCAGGAUAUCCGGAAACGGAGAAGGGAGUAACUAGUGAUGUUAGGGAUUCCCUAUU",
    "class_assignment": "0 (no)"
  }
]

All figures here come from the supplement of paper PMC9170038.
